Biological target: recombinant, human protein tyrosine phosphatase (PTP) 1B (hPTP1B) (Homo sapiens, UniProt P18031)
Sequence (P18031 whole entry): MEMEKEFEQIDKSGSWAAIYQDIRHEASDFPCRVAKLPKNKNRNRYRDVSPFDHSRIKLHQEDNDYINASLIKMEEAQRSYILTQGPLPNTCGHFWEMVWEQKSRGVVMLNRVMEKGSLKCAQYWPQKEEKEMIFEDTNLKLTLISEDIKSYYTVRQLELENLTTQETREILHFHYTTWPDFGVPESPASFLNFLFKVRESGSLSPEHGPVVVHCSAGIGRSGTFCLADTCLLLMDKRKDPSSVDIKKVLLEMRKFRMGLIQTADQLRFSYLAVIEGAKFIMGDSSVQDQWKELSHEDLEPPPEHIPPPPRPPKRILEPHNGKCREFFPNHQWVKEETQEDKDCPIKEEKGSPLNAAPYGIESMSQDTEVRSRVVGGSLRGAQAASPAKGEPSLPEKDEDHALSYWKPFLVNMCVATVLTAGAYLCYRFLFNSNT
Assay: Inhibition of tri-phosphorylated insulin receptor dodecaphosphopeptide dephosphorylation by hPTP1B
Settings: 50 μM IR triphosphopeptide substrate, 5 min preincubation and 5 min reaction at 37° C., malachite green-ammonium molybdate phosphate detection
Parameter pIC50: see the listing below.
The value called pIC50 is obtained by taking minus log10 of the concentration in mol/L.

Here's what some known entries look like.
| substance_smiles | pIC50 |
| --- | --- |
| CCCCCCCCCCCCNC(=O)c1cc(-c2cccc(Cl)c2)c(OCC(=O)O)c(-c2cccc(Cl)c2)c1 | 7.20 |
| CCCCCCCOc1ccc(CNC(=O)c2cc(-c3cccc(Cl)c3)c(OCC(=O)O)c(-c3cccc(Cl)c3)c2)cc1 | 6.87 |
| O=C(O)COc1c(-c2cccc(C(F)(F)F)c2)cc(C(=O)NCCCCCCOCc2ccc(-c3ccccc3)cc2)cc1-c1cccc(C(F)(F)F)c1 | 6.42 |

Qu. Recorded pIC50 of CCCCCCCCCCCCNC(=O)c1cc(Br)c(OCC(=O)O)c(-c2ccc(OC)cc2)c1 , please.
Ans. 6.69

Qu. Please do the same for COc1ccc2c(ccn2CCCCCCCCNC(=O)c2cc(-c3cccc(Cl)c3)c(OCC(=O)O)c(-c3cccc(Cl)c3)c2)c1 as well.
Ans. 6.73

Qu. Please do the same for O=C(NCCCCCCCCc1ccccc1)c1cc(Br)c(OS(=O)(=O)c2ccc(C(=O)O)c(O)c2)c(-c2cccc(C(F)(F)F)c2)c1 as well.
Ans. 7.14

Qu. Please do the same for CCCCCCCCOc1cc(-c2cccc(NC(C)=O)c2)c(OCC(=O)O)c(-c2cccc(NC(C)=O)c2)c1 as well.
Ans. 6.52

Qu. Please do the same for O=C(O)CCCCCCOc1c(-c2cccc(C(F)(F)F)c2)cc(C(=O)NCCCCCCCCc2ccccc2)cc1-c1cccc(C(F)(F)F)c1 as well.
Ans. 6.82

Qu. Please do the same for CCCCCCCCCCCCNC(=O)c1cc(-c2ccc(OC)cc2)c(OCC(=O)O)c(-c2cccc(Cl)c2)c1 as well.
Ans. 6.99

Qu. Please do the same for CCCCCCCCOc1cc(-c2cccc(Cl)c2)c(OCC(=O)O)c(-c2cccc(Cl)c2)c1 as well.
Ans. 6.92

Qu. Please do the same for CCCCCCCCCCCCNC(=O)c1cc(Br)c(OCC(=O)O)c(-c2cccc(C(F)(F)F)c2)c1 as well.
Ans. 6.92

Qu. Please do the same for CC(C)(COc1c(-c2cccc(C(F)(F)F)c2)cc(C(=O)NCCCCCCCc2ccccc2)cc1-c1cccc(C(F)(F)F)c1)C(=O)O as well.
Ans. 6.79

Qu. Please do the same for COc1ccc(-c2cc(C(=O)NCCCCCCCCc3ccccc3)cc(-c3cccc(Cl)c3)c2OCC(=O)O)cc1 as well.
Ans. 6.73

Qu. Please do the same for O=C(O)COc1c(-c2cc(Cl)cc(Cl)c2)cc(C(=O)NCCCCCCc2ccccc2)cc1-c1cc(Cl)cc(Cl)c1 as well.
Ans. 7.48

Qu. Please do the same for O=C(NCCCCCCCCc1ccccc1)c1ccc(OS(=O)(=O)c2ccc(C(=O)O)c(O)c2)c(Br)c1 as well.
Ans. 6.28

Qu. Please do the same for O=C(O)COCCOc1c(-c2cccc(C(F)(F)F)c2)cc(C(=O)NCCCCCCc2ccccc2)cc1-c1cccc(C(F)(F)F)c1 as well.
Ans. 6.15

Qu. Please do the same for O=C(O)COc1c(-c2cccc(Cl)c2)cc(C(=O)NCCCCCCCCn2ccc3cc(F)ccc32)cc1-c1cccc(Cl)c1 as well.
Ans. 6.86

Qu. Please do the same for COc1ccc(-c2cc(C(=O)N(C)CCCCCCCCc3ccccc3)cc(-c3cccc(Cl)c3)c2OCC(=O)O)cc1 as well.
Ans. 6.46

Qu. Please do the same for O=C(O)COc1c(-c2cccc(Cl)c2)cc(C(=O)NCCCCCCCCn2ccnc2)cc1-c1cccc(Cl)c1 as well.
Ans. 6.33

Qu. Please do the same for N#Cc1cccc(OCCCCCCCCNC(=O)c2cc(-c3cccc(Cl)c3)c(OCC(=O)O)c(-c3cccc(Cl)c3)c2)c1 as well.
Ans. 6.76

Qu. Please do the same for CCCCCCCCCCCCNC(=O)c1cc(-c2cccc(Cl)c2)c(OCCOCC(=O)O)c(-c2cccc(Cl)c2)c1 as well.
Ans. 7.82

Qu. Please do the same for O=C(O)COCCOc1c(-c2cc(Cl)cc(Cl)c2)cc(C(=O)NCCCCCCc2ccccc2)cc1-c1cc(Cl)cc(Cl)c1 as well.
Ans. 6.60

Qu. Please do the same for O=C(O)CCCCOc1c(-c2cccc(C(F)(F)F)c2)cc(C(=O)NCCCCCCCCc2ccccc2)cc1-c1cccc(C(F)(F)F)c1 as well.
Ans. 6.97

Qu. Please do the same for Cc1cccc(-c2cc(C(=O)NCCCCCCCc3ccccc3)cc(-c3cccc(C)c3)c2OCCCC(=O)O)c1 as well.
Ans. 6.59

The reported measurements were obtained from patent US7008636B2.
